# method.description: Stability of SF2523 in mouse plasma under storage conditions
# Assay type: in vitro ADME
# test.conditions: mouse; extracted plasma samples; Autosampler stability (4°C, 24 h); nominal 0.3 ng/ml; mean ± SD, n = 3; read-out: Stability recovery, Accuracy (%)
measured.metric: recovery at 24 h, 0.3 ng/ml (%)
Could you give me the number in %? Just the number is fine.

-- ask Tell me its recovery at 24 h, 0.3 ng/ml given O=c1cc(N2CCOCC2)oc2c(-c3ccc4c(c3)OCCO4)csc12 as the entry.
-- reply 105

###

# method.description: Stability of SF2523 in mouse plasma under storage conditions
# Type: in vitro ADME
# test.conditions: mouse plasma; Three freeze-thaw cycles (−80°C to room temperature); nominal 375 ng/ml; mean ± SD, n = 3; read-out: Stability recovery, Accuracy (%)
# Method: Stability in mouse plasma was assessed in triplicate at LQC and HQC concentrations at room temperature (6 h, 25 ± 5°C), and after three freeze–thaw cycles (−80°C) and long-term storage (60 days at −80°C). Additionally, the 24 h autosampler stability of extracted samples (at 4°C) was determined.
measured.metric: recovery at 375 ng/ml (%)
Could you give me the number in %? Just the number is fine.

-- ask Tell me its recovery at 375 ng/ml given O=c1cc(N2CCOCC2)oc2c(-c3ccc4c(c3)OCCO4)csc12 as the entry.
-- reply 114
